- study target: T1, human parkin, full-length, affinity tag cleaved (human, UniProt O60260 1-465)
- T1 construct: human parkin (RBR E3 ubiquitin ligase), full-length; the MST used the uncleaved His6-Smt3 form; also called unphosphorylated parkin; source: E. coli BL21(DE3), purified (Ni-NTA HisTrap FF, Ulp1 cleavage, gel filtration); not shown: His6, N-terminal, cleaved; Smt3, N-terminal, cleaved
- T1 sequence (O60260 whole entry): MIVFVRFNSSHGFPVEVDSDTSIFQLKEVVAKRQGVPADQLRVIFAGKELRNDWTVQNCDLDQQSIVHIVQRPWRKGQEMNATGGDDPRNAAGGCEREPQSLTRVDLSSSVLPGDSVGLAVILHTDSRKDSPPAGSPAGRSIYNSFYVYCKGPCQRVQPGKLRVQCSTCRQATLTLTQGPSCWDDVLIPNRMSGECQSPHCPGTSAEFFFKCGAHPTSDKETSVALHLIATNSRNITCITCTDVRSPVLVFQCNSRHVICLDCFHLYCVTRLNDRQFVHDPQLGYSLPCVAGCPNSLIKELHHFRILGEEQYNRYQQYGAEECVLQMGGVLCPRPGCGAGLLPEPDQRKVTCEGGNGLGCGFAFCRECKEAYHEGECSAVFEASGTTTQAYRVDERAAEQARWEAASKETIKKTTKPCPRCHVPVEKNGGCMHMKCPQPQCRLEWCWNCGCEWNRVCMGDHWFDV
- assay details: MST + ITC; parkin with CISD1 (Supplementary Fig. S2); the text names 'either MST or ITC' and does not tell which was used for CISD1
- conditions: both partners purified
pKd: −log10 of the molar value.
metric: pKd

// pKd lookup, binder = human CISD1 (residues 32-108), entire extramembranous portion (domain or fragment, UniProt Q9NZ45 32-108, looked up, human CISD1 (MitoNEET) lacking only its transmembrane domain, residues 32-108; also called MitoNEET; source: E. coli BL21(DE3) with FeCl3 in the media, purified (Ni-NTA, TEV cleavage, gel filtration); not shown: His6, N-terminal, cleaved) KRFYVKDHRNKAMINLHIQKDNPKIVHAFDMEDLGDKAVYCRCWRSKKFPFCDGAHTKHNEETGDNVGPLIIKKKET , result: < 4.00
